Measured viability of individual entries
# Assay: reducers of endogenous Her2 protein level, primary screen, SKBR3 breast tumor cells, AlphaScreen, ATP viability (AID 461);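 on viability: percent of carrier control wells set as 100% viability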
# Measurement Setup: 18-24 h, measured here: SKBR3 viability, ATP luminescence, at 10 µM
The answer is to be given in %; state only the numeric part.

// worked examples, viability included
Cc1cccc(NC(=O)CCN2CCN(C/C=C/c3ccccc3)CC2)c1 :: 87.5
Cc1ccccc1NC(=O)CSc1nc(N)c(C#N)c(-c2cccs2)c1C#N :: 115
CC(=O)c1cc2c(=O)c3cc(C)ccc3oc2nc1C :: 102
CCOc1ccc2[nH]c(=O)c(C(c3nnnn3CC3CCCO3)N3CCc4ccccc4C3)cc2c1 (stereo unspecified) :: 97
O=C(CP(=O)(CO)CO)c1ccc(Cl)cc1 :: 100

Which viability value belongs to COc1cccc(-n2c(C)nc3c(cnn3-c3ccc(C)cc3)c2=O)c1 ?
86

Could you share which viability value was measured for COC(=O)c1sc(S(=O)(=O)Nc2ccc3cn[nH]c3c2)c(C(=O)OC)c1C ?
97

* * *

Measured viability, listed per entry.
# Assay: reducers of endogenous Her2 protein level, primary screen, SKBR3 breast tumor cells, AlphaScreen, ATP viability (AID 461);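 on viability: percent of carrier control wells set as 100% viability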
# Measurement Setup: 18-24 h, measured here: SKBR3 viability, ATP luminescence, at 10 µM
Report as a plain number; the unit % is understood.

CN(C)CCCN1C(=O)c2oc3ccccc3c(=O)c2C1c1cccs1 (stereo unspecified) :: 110

Which value of viability has been reported for CCSc1nnc(-c2cccs2)o1 in the records?
89

For COC(=O)c1cc2oc(C)cc2n1CC(=O)N(C)c1ccccc1 , what is its reported viability?
93

Report viability for CCCn1c(=O)c2ccccc2n2c(SCCOc3ccccc3F)nnc12 please.
72

What does the record list as viability for Cc1ccc(-c2nnc(N(C)C(=O)c3ccccn3)s2)cn1 ?
133

Field request: viability | item: CCc1nnc(NC(=O)c2ccc(COc3ccc(C)cc3)o2)s1
104

* * *

We begin with a simple list: items and their reported Her2 level.
# Study System: Receptor tyrosine-protein kinase erbB-2 (Homo sapiens)
# Assay: reducers of endogenous Her2 protein level, primary screen, SKBR3 breast tumor cells, AlphaScreen, ATP viability (AID 461);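 on Her2 level: lower value means less Her2 protein in the cells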;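 on viability: percent of carrier control wells set as 100% viability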
# Measurement Setup: 18-24 h, at 10 µM, stronger effect = lower value
Express it in %; write the number only.

c1ccc2c(c1)CC(N1CCCCC1)c1ccccc1N2 (stereo unspecified) :: 91
COc1ccc(NC(=O)C(C)NS(=O)(=O)c2ccc(NC(C)=O)cc2)cc1Cl (stereo unspecified) :: 97
Cc1cc(C)cc(NS(=O)(=O)c2ccc3[nH]c(=O)[nH]c3c2)c1 :: 89
CC(C)OCCCNC(=O)c1cc2c(s1)CS(=O)(=O)C2 :: 104
O=S(=O)(c1ccc(Br)s1)N1CCCCC1 :: 97.5

Now examine the next entry.
# query: Her2 level | item CCNCCNC(=O)c1c(O)c2ccccc2n(CC)c1=O | system: Receptor tyrosine-protein kinase erbB-2 (Homo sapiens)
90.5

* * *

The following molecules are shown together with reported viability values.
# Assay: reversal of MRP1-mediated doxorubicin resistance, pilot screen, H69AR cells, doxorubicin co-treatment (AID 601)
# Measurement Setup: H69AR cells, CellTiter-Glo, 72 h; compound alone cytotoxicity; at 10 µM
Write it as a number; the unit % goes unstated.

COc1ccc(Cl)cc1Nc1nc(C)cc(=O)[nH]1 :: 95.8

viability lookup needed for CC1CN(Cc2nc3c(c(=O)[nH]c(=O)n3C)n2CC(N)=O)CC(C)O1 (stereo unspecified) , thanks.
102

Reported viability, molecule O=C(NCc1ccco1)c1csc(Nc2ccccc2Cl)n1 : ____
78.2

GET /values?readout=viability&item= COc1ccc(N=c2scc(-c3ccc(S(=O)(=O)N4CCOCC4)cc3)n2CCCO)cc1
72.8

Reported viability for CC(NC(=O)Nc1nccs1)(C(F)(F)F)C(F)(F)F : what is it?
99.7

State the recorded viability for this entry: COc1cc(C(=O)Nc2cccc(-c3nc4cc(C)ccc4o3)c2)cc(OC)c1OC
55.7

* * *

# Assay: SK-BR-3 cell growth inhibitors, pilot screen, 24 h, human (AID 572);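 further: compound exposure lasted between 18 and 24 h rather than exactly 24 h; 100% = carrier-treated control wells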
# Measurement Setup: SK-BR-3 viability, CellTiter-Glo luminescence, at 10 µM, stronger effect = lower value
Measured Property: viability (%)
Please reply with the bare figure in % and do not write the unit itself.

Worked examples follow.
CC1(C)NC(=O)N(CNc2cc(Cl)ccc2Cl)C1=O :: 104
COCCN(C(=O)Cn1nnc2ccccc21)C(C(=O)NC1CCCC1)c1cc(OC)ccc1OC (stereo not given) :: 86
COc1ccc(S(=O)(=O)Nc2ccc(F)c(F)c2)cc1Cl :: 74

So what does the record say about viability for CCN(CCNC(=O)C1CCN(S(C)(=O)=O)CC1)c1ccccc1 ?
91

// query viability value for entry O=C(NCCN1CCOCC1)c1ccc2c(c1)N(Cc1ccccc1)C(=O)CS2
89.5

Need viability of Cn1c(=O)oc2cc(S(=O)(=O)NCCC(=O)N3CCc4ccccc4C3)ccc21 , thanks.
102

viability lookup needed for O=C(c1cccn2c(=O)c3cc(Cl)ccc3nc12)N1CCOCC1 , thanks.
95.5

For the compound Cn1c(=O)c2c(nc(Oc3ccc4c(c3)OCO4)n2Cc2ccc(F)cc2)n(C)c1=O , what viability is on record?
79.5

Given the compound Cc1ccc(C)c(/C(O)=C2\C(=O)C(=O)N(CCCN3CCOCC3)C2c2cccnc2)c1 (stereo not given) , what is its reported viability?
99

Name the recorded viability for Cc1ccc(-c2noc(C3CCCN(C(=O)c4ccc(F)cc4F)C3)n2)cc1 (stereo not given) .
99

* * *

# Assay: reducers of endogenous Her2 protein level, primary screen, SKBR3 breast tumor cells, AlphaScreen, ATP viability (AID 461);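 on viability: percent of carrier control wells set as 100% viability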
# Measurement Setup: 18-24 h, measured here: SKBR3 viability, ATP luminescence, at 10 µM
Measured viability, listed per entry.
Reply numerically in %, unit not repeated.

Worked cases, viability given:
Cc1cnc(C(=O)Nc2ccc(-n3cnnn3)cc2)cn1 :: 100
CC(C)(C)Cc1nc(-c2ccccn2)no1 :: 95.5
O=C(c1cc(S(=O)(=O)N2CCOCC2)ccc1F)N1CCCc2ccccc21 :: 99
CCOc1cc(C2C(C#N)=C(N)OC(C)=C2C(C)=O)cc(Br)c1O (stereo not drawn) :: 114
O=C(Cn1nnc2ccccc2c1=O)NC1CCCc2ccccc21 (stereo not drawn) :: 77
Fc1cccc2sc(N3CCOCC3)nc12 :: 93.5
O=C(O)c1cc2nc(-c3ccc(F)cc3)cc(C(F)(F)F)n2n1 :: 94
COc1ccc(OC)c(S(=O)(=O)Nc2ccc(C(N)=O)cc2)c1 :: 98.5
O=C(c1ccc(Br)o1)N(c1ccc(Br)cc1)C1C=CS(=O)(=O)C1 (stereo not drawn) :: 89
COc1ccc(-c2ccc(-c3nnc(-c4ccncc4)o3)cc2)cc1 :: 130

Which viability value is on record for CCN(CC)CCOc1cccc(C(C)C)c1 ?
90.5

Quick one: viability of COCCN1C(=O)C(=O)/C(=C(/O)c2cccc(OC)c2)C1c1ccncc1 (stereo not drawn) ?
99

* * *

Measured inhibition, listed per entry for reference.
# Assay: 384-well plate pilot, post-Golgi transport modulator project, inhibition of yeast transport mutant growth (AID 636)
# Measurement Setup: absorbance 615 nm, about 18 h, stronger effect = higher value
Write the number in % without appending the unit.

As a guide, the following entries are already answered.
COc1ccc(-c2noc(CSc3nc(N)c(-c4ccccc4)c(=O)[nH]3)n2)cc1OC :: -4.13
CCN(CC)S(=O)(=O)c1cccc2c(N(C)C)cccc12 :: -4.93
O=C(CSc1ccc(Cl)cc1)OCc1nnc(-c2ccccc2)o1 :: 0.53
Cc1cccc(NC(=O)Cn2c(=O)n(C)c3ccccc32)c1 :: -3.33
CCSCCNC(=O)c1cc(-n2cnnc2)ccc1Cl :: -3.47

Any idea what inhibition was measured for N#CCSc1nc(-c2ccccc2)cs1 ?
-1.71

Record request: inhibition value, item c1ccc(CCc2nc(-c3cccnc3)no2)cc1
-4.27

I am curious: what inhibition value has been reported for COc1ccc(C2CC(=O)C(C=NCCN3CCOCC3)=C(O)C2)cc1 (stereo unspecified) ?
-0.79

Reported inhibition for C/C(N)=C(/C#N)C(=O)COC(=O)c1cc(C)n(-c2ccc(F)cc2)c1C : what is it?
-4.53

# inhibition lookup, item COc1ccc2c(C(=O)CN(C)C3CCCCC3)c[nH]c2c1
-0.92

Suppose we examine the molecule Cc1cccc(Nc2nc3c(c(=O)n(C)c(=O)n3C)n2Cc2ccccc2)c1 ; what inhibition value has been reported?
-4.32

Query: inhibition; subject: Cc1cccn2c(=O)c3cc(C(=O)N4CCCc5ccccc54)n(C)c3nc12
-1.89

# lookup: inhibition of CCCCc1c(O)nc(SCC(=O)c2ccccc2)[nH]c1=O
-4.87

* * *

The following compounds are shown together with reported viability values.
# Assay: HUVEC growth inhibition – cell-based, human, primary screen (AID 575);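 further: 100% = median of untreated cell wells with 0.1% DMSO on each plate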
# Measurement Setup: HUVEC proliferation, CellTiter-Glo luminescence, 72 h; at 10 µM; stronger effect = lower value
API: value field is a number in %; no unit string.

C=CCn1c(SCC(=O)O)nnc1-c1cccc(Cl)c1 :: 103
CCOc1ccc(NC(=O)CSc2nnnn2CC(=O)O)cc1 :: 96
COc1ccc2c(c1)n([O-])c1c([n+]2=O)CCC1 :: 109
CCOC(=O)c1nnn(CC(=O)Nc2cccc(F)c2)c1C(=O)OCC :: 100

Sample COc1ccc(OC)c(C2=NOC(C(=O)Nc3cccnc3)C2)c1 (stereo unspecified) — what was its viability?
102

Any idea what its viability is? The compound is O=C(CN1CCCCCC1)OCCN=C1NS(=O)(=O)c2ccccc21
88.1
